- TESTED ON: human ErbB2, full length, on cells (human, UniProt P04626 23-1255)
- ASSAY OVERVIEW: cell-based or functional assay
Entries and their % inhibition @36 µg/ml, SKBR3 cell proliferation values follow.
OBSERVED PROPERTY: % inhibition @36 µg/ml, SKBR3 cell proliferation (%)

BINDER	UNITS OF MEASURE	MEASURED NUMBER
monoclonal antibody 1.96 (antibody, V domains shown, Fully human IgG (gamma/kappa) from a XenoMouse XM3B-3 hybridoma; constant regions not tied to it) VH: EVQLVESGGGLVKPGGSLRLSCAASGFTFSSYSMNWVRQAPGKGLEWVSSISSSSSYIYYADSVKGRFTISRDNAKNSLYLQMNSLRAEDTAVYYCARGGDGYNYYYFDYWGQGTLVTVSS VL: DIVMTQSPDSLAVSLGERATITCKSSQSVFFRSNNKNCLAWYQQRPGQPPNLLFYWASTRESGVPDRFSGSGSGTDFTLTISSLQAEDVAVYYCQQYFGSPFTLGPGTKVDIK	%	43
monoclonal antibody 1.100.1 (antibody, V domains shown, Fully human IgG (gamma/kappa) from a XenoMouse XM3B-3 hybridoma; constant regions not tied to it; also called 1.100.2; 1.100.3) VH: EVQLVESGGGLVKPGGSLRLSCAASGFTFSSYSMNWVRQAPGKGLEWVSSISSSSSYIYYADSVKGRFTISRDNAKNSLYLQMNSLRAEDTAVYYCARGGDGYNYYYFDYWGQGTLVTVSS VL: DIVMTQSPDSLAVSLGERATITCKSSQSVFFRSNNKNCLAWYQQRPGQPPNLLIYWASTRESGVPDRFSGSGCGTDFTLTISSLQAEDVAVYYCQQYFGSPFTFGPGTKVDIK	%	54
monoclonal antibody 1.20 (antibody, V domains shown, Fully human IgG (gamma/kappa) from a XenoMouse XM3B-3 hybridoma; constant regions not tied to it; also called 1.20.1; 1.19) VH: EVQLVESGGGLVKPGGSLRLSCAASGFTFSSYTMNWVRQAPGKGLEWVSSISSSSSYIYYADSVKGRFTISRDNAKNSLYLQMNSLSAEDTAVYSCARGGDGYNYYYFDYWGQGTLVTVSS VL: DIVMTQSPGSLVVSLGERATITCKSSQSVFFRSNNKNCLAWYQQRPGQSPNLLIYWASTRESGVPDRFSGSGSGTDFTLTISSLQAEDVAVYYCQQYFGSPFTFGPGTKVDIK	%	49
